# METHOD SUMMARY: soluble on expression in E. coli; label from the status in PepcDB or PDB records
ASSAY ENDPOINT: soluble on expression in E. coli

residue_string=MSISGIGSYAASMLTPSRGSAGTSASAAATAADNTPATKSGSGGVQKTDFTQMTHKQLFDWVNSKIASGEMSFDESSTFISMTVSMPVDGSSMAPDDKQPVNFMQSVRDGMERALQTNDSDLFARLQTALHTMQRSQGEVRGVNMTV assay_endpoint="soluble on expression in E. coli" endpoint_result="not soluble"
residue_string=SQLTHINAAGEAHMVDVSAKAETVREARAEAFVTMRSETLAMIIDGRHHKGDVFATARIAGIQAAKRTWDLIPLCHPLMLSKVEVNLQAEPEHNRVRIETLCRLTGKTGVEMEALTAASVAALTIYDMCKAVQKDMVIGPVRLLAKSGGKSGDFKVEADD assay_endpoint="soluble on expression in E. coli" endpoint_result="not soluble"
